Give IC50 at 20 h for every item shown.
- ASSAY COMMENT: Cytotoxicity assay (resazurin)
- Assay type: cell-based, human
- DETAILS: human; HEK293 cells; mean (n = 2); highest dose tested 32 μg/mL; read-out: Cytotoxicity (concentration of compound at 50% cytotoxicity, IC50)

Qu. Which measured IC50 at 20 h value corresponds to O=C(CC(c1ccccc1)c1ccccc1)NCCCNCCCCCCCNCCCNC(=O)CC(c1ccccc1)c1ccccc1.O=C(O)C(F)(F)F.O=C(O)C(F)(F)F [Compound 15c] ?
Ans. > 36 µM

Qu. Moving on to O=C(CCc1ccccc1)NCCCNCCCCCCCNCCCNC(=O)CCc1ccccc1.O=C(O)C(F)(F)F.O=C(O)C(F)(F)F [Compound 13c]
Ans. > 43.4 µM

Qu. Moving on to O=C(CC(c1ccccc1)(c1ccccc1)c1ccccc1)NCCCNCCCCCCCCNCCCNC(=O)CC(c1ccccc1)(c1ccccc1)c1ccccc1.O=C(O)C(F)(F)F.O=C(O)C(F)(F)F [Compound 18d]
Ans. 9.7 µM

Qu. Moving on to O=C(CC(c1ccccc1)c1ccccc1)NCCCNCCCCCCCCCCCCNCCCNC(=O)CC(c1ccccc1)c1ccccc1.O=C(O)C(F)(F)F.O=C(O)C(F)(F)F [Compound 15f]
Ans. 5.46 µM

Qu. Moving on to O=C(CC(c1ccccc1)c1ccccc1)NCCCNCCCCCCCCNCCCNC(=O)CC(c1ccccc1)c1ccccc1.O=C(O)C(F)(F)F.O=C(O)C(F)(F)F [Compound 15d]
Ans. > 35.4 µM

Qu. Moving on to `Cl.Cl.S=C(NCCCNCCCCNCCCNC(=S)NC(c1ccccc1)c1ccccc1)NC(c1ccccc1)c1ccccc1`
Ans. > 44.1 µM

Qu. Moving on to O=C(CCc1ccccc1)NCCCNCCCCCCCCCCNCCCNC(=O)CCc1ccccc1.O=C(O)C(F)(F)F.O=C(O)C(F)(F)F [Compound 13e]
Ans. > 41.1 µM

Qu. Moving on to O=C(CCc1ccccc1)NCCCNCCCCCCCCCCCCNCCCNC(=O)CCc1ccccc1.O=C(O)C(F)(F)F.O=C(O)C(F)(F)F [Compound 13f]
Ans. > 39.7 µM

Qu. Moving on to `Cl.Cl.S=C(NCCCNCCCCCCCNCCCNC(=S)NC(c1ccccc1)c1ccccc1)NC(c1ccccc1)c1ccccc1`
Ans. > 41.7 µM

Qu. Moving on to O=C(CCC(=O)NCCC(c1ccccc1)c1ccccc1)NCCCNCCCCCCCCCCCCNCCCNC(=O)CCC(=O)NCCC(c1ccccc1)c1ccccc1 [Compound 16f]
Ans. > 28.3 µM

Qu. Moving on to O=C(CCC(=O)NCCCc1ccccc1)NCCCNCCCCCCCCCCNCCCNC(=O)CCC(=O)NCCCc1ccccc1.O=C(O)C(F)(F)F.O=C(O)C(F)(F)F [Compound 14e]
Ans. > 33.7 µM

Qu. Moving on to O=C(CC(c1ccccc1)c1ccccc1)NCCCNCCCCCCNCCCNC(=O)CC(c1ccccc1)c1ccccc1.O=C(O)C(F)(F)F.O=C(O)C(F)(F)F [Compound 15b]
Ans. > 36.6 µM

Qu. Moving on to `Cl.Cl.S=C(NCCCNCCCCCCCCCCCCNCCCNC(=S)NC(c1ccccc1)c1ccccc1)NC(c1ccccc1)c1ccccc1`
Ans. ≤ 0.298 µM

Qu. Moving on to O=C(CCC(=O)NCCC(c1ccccc1)c1ccccc1)NCCCNCCCCCCNCCCNC(=O)CCC(=O)NCCC(c1ccccc1)c1ccccc1 [Compound 16b]
Ans. > 30.6 µM

Qu. Moving on to `Cl.Cl.S=C(NCCCNCCCCCCCCCCNCCCNC(=S)NC(c1ccccc1)c1ccccc1)NC(c1ccccc1)c1ccccc1`
Ans. > 39.5 µM

Qu. Moving on to CC/C(=C(\c1ccccc1)c1ccc(OCCN(C)C)cc1)c1ccccc1 [Tamoxifen, reference compound]
Ans. 24 µM

Qu. Moving on to O=C(CC(c1ccccc1)(c1ccccc1)c1ccccc1)NCCCNCCCCCCNCCCNC(=O)CC(c1ccccc1)(c1ccccc1)c1ccccc1.O=C(O)C(F)(F)F.O=C(O)C(F)(F)F [Compound 18b]
Ans. 15.7 µM

Qu. Moving on to O=C(NCCCNCCCCCCCNCCCNC(=O)C(c1ccccc1)(c1ccccc1)c1ccccc1)C(c1ccccc1)(c1ccccc1)c1ccccc1.O=C(O)C(F)(F)F.O=C(O)C(F)(F)F [Compound 17c]
Ans. ≤ 0.247 µM

Qu. Moving on to O=C(CCC(=O)NCCC(c1ccccc1)c1ccccc1)NCCCNCCCCCCCNCCCNC(=O)CCC(=O)NCCC(c1ccccc1)c1ccccc1.O=C(O)C(F)(F)F.O=C(O)C(F)(F)F [Compound 16c]
Ans. > 30.2 µM

Qu. Moving on to O=C(CC(c1ccccc1)(c1ccccc1)c1ccccc1)NCCCNCCCCNCCCNC(=O)CC(c1ccccc1)(c1ccccc1)c1ccccc1.O=C(O)C(F)(F)F.O=C(O)C(F)(F)F [Compound 18a]
Ans. 18.3 µM

Qu. Moving on to O=C(CC(c1ccccc1)c1ccccc1)NCCCNCCCCNCCCNC(=O)CC(c1ccccc1)c1ccccc1.O=C(O)C(F)(F)F.O=C(O)C(F)(F)F [Compound 15a]
Ans. > 37.8 µM

Qu. Moving on to O=C(CCC(=O)NCCC(c1ccccc1)c1ccccc1)NCCCNCCCCCCCCCCNCCCNC(=O)CCC(=O)NCCC(c1ccccc1)c1ccccc1.O=C(O)C(F)(F)F.O=C(O)C(F)(F)F [Compound 16e]
Ans. 17.3 µM

Qu. Moving on to O=C(CCC(=O)NCCCc1ccccc1)NCCCNCCCCCCCCCCCCNCCCNC(=O)CCC(=O)NCCCc1ccccc1.O=C(O)C(F)(F)F.O=C(O)C(F)(F)F [Compound 14f]
Ans. > 32.7 µM

Data origin: paper PMC10052977
